Data credit: patent US20240360228A1

Could you please report measured MFI for the items listed next?
system.name: T1, human CCR8 (human, UniProt P51685 1-355)
T1 construct: Native CCR8 on human PBMC (CCR8+ CD3+ or CCR8+ CD4+ lymphocytes); also called chemokine (C-C motif) receptor 8
assay.text: flow blocking, PBMC CCR8+CD3+; competitor PE-AB15
# answer = number (no unit)

q: Requested read-out: MFI. Entry: AB7 (antibody, V domains shown, Hybridoma monoclonal; also called antibody 7; clone 7) VH: AVQLVESGGGLVQPKESLKISCAASGFTFSYAAMYWVRQTPGKGLEWVARIRTKPNNYATYYADSVKGRFTISRDDSKSMVYLQMDNLKSEDTAMYYCNIMGITRGYYFDYWGQGVMVTVSS VL: DIQMTQSPSFLSASVGDRVTINCKASQNINRYLNWYQQQLGEAPKLLIYNANNLQTGIPSRFSGSRSGTDFTLTISSLQPEDVATYFCLQHNSWPWTFGGGTKLELK
a: 660

q: Requested read-out: MFI. Entry: AB6 (antibody, V domains shown, Hybridoma monoclonal; Same VH/VL entries as AB5; also called antibody 6; clone 6) VH: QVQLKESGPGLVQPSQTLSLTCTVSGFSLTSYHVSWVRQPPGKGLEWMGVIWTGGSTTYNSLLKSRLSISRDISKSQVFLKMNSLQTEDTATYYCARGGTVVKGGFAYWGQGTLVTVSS VL: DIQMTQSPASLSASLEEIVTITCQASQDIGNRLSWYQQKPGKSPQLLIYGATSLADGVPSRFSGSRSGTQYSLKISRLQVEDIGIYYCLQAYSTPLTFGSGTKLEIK
a: 745

q: Requested read-out: MFI. Entry: AB11 (antibody, V domains shown, Hybridoma monoclonal; also called antibody 11; clone 11) VH: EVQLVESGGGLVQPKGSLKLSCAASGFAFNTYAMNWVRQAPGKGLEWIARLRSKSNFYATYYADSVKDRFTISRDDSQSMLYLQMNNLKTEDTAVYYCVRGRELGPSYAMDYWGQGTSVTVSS VL: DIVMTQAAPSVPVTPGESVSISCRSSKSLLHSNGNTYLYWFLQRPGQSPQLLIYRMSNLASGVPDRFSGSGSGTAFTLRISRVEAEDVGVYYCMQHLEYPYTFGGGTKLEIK
a: 412

q: Requested read-out: MFI. Entry: AB10 (antibody, V domains shown, Hybridoma monoclonal; also called antibody 10; clone 10) VH: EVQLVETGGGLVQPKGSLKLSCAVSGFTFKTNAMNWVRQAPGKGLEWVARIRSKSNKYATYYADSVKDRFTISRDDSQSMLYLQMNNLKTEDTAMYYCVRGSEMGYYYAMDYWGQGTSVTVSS VL: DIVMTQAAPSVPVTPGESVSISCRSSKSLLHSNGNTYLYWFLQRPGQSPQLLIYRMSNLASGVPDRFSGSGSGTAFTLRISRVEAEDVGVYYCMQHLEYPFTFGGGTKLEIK
a: 487
